Assay: Identification of proteins required for the processing of the EWS-FLI1 nascent transcript;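 further: robust z of luciferase light less the median z of siRNAs with the same seed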
Conditions: TC32 Ewing sarcoma NR0B1-luc vs CMV-luc, 48 h; screened at 20 nM (by protocol)
Protocol: Ewing sarcoma (ES) cells depend on the EWS-FLI1 fusion transcription factor for cell survival. […] Luciferase activity was assessed 48 hours post siRNA-transfection. Twenty microl of serum-free media containing Lipofectamine RNAiMax (0.05 microl) was added to wells containing siRNA (0.8 pmol). […] Luciferase expression was measured using OneGlo (Promega, Madison, WI). […]
Over roughly 59,000 sequences, the read-out has its median near -0.00055; the lowest 2% begin near -2. Only a selection was taken, and the lowest values are over-represented in it overall.
Entries whose seed-corrected z-score is below -2 take Met; entries at or above -2 take Not met.

{"columns": ["biosequence", "category_label"],
 "data": [
  ["UGUGGUACCAGGCUGCUUG against PAQR8", "Met"],
  ["AGUGGGAUAAGGGCUCUGA against TMEM132A", "Met"],
  ["UCAAUGAGAGUGCACAUCC against COPA", "Met"],
  ["UGUGGGUUAAAAGUCAGCA against CDK4", "Not met"],
  ["UUAUUUAUCUGAGUUGUGA against NFIA-AS1", "Met"],
  ["UGACUUUAAGUUUUGGGCC against LINC00999", "Not met"],
  ["UGAAUGACAUCCACUACCU against OR6K2", "Not met"],
  ["UUCUGGAUUAUAGUCAUCC against CWC22", "Not met"],
  ["UCUCUUGAGAGCGCGGUUG against RGS8", "Not met"],
  ["AACUGGGACUUGUUUUACC against FAM83F", "Not met"],
  ["AGAUAGUACACUCAUAUGG against ZNF791", "Met"],
  ["UUUAGCAACAGAGUCCACC against MAP2K6", "Not met"]
]}

====

test: Identification of proteins required for the processing of the EWS-FLI1 nascent transcript; conditions: TC32 Ewing sarcoma NR0B1-luc vs CMV-luc, 48 h; screened at 20 nM (by protocol);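 further: robust z of luciferase light less the median z of siRNAs with the same seed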
Whole data set: some 59,000 sequences, median the read-out near -0.00055, cut for the lowest 2% near -2. Shown is part of a subset that was picked to be rich in the lowest values.
Sorting guide: entries reporting seed-corrected z-score beneath -0.3 go in the t pile, the rest go in the f pile.

{"columns": ["biosequence", "category_label"],
 "data": [
  ["AUUGGAGCAAGACUUUUAG against BDKRB1", "f"],
  ["UAGCUGUGAACAGUACCCG against MPL", "t"],
  ["UGAAGGUUUGGAGCAAACU against RPL15P17", "f"],
  ["UAUCCGAUCACCACUCUCC against MYOM3", "f"],
  ["AUGCUUACAAGAUCUUGUC against USP44", "f"],
  ["AAUGAGAUAAUGUUGGUCA against SNX29P1", "t"]
]}

====

Experiment: Identification of proteins required for the processing of the EWS-FLI1 nascent transcript;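 further: robust z of luciferase light less the median z of siRNAs with the same seed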
Details: TC32 Ewing sarcoma NR0B1-luc vs CMV-luc (EWS-FLI1 target promoter against control promoter), 48 h; screened at 20 nM (by protocol)
Protocol: Ewing sarcoma (ES) cells depend on the EWS-FLI1 fusion transcription factor for cell survival. […] Luciferase activity was assessed 48 hours post siRNA-transfection. Twenty microl of serum-free media containing Lipofectamine RNAiMax (0.05 microl) was added to wells containing siRNA (0.8 pmol). […] Luciferase expression was measured using OneGlo (Promega, Madison, WI). […]
In all, about 59,000 sequences were measured (the read-out: median about -0.00055, lowest 2% from about -2 on). The sample as a whole holds a higher share of the lowest values than the screen did.
Label True when seed-corrected z-score is at or above -1; anything below gets False.

{"columns": ["biosequence", "category_label"],
 "data": [
  ["UUCUACUCUAGCAAUUUCC against NDC80", "False"],
  ["UCACUGUCAAUCAUGCGCU against CACNG1", "False"],
  ["UGGAUAAUCAGGAUGGUCC against AKR1C4", "True"],
  ["UUUAUCCCGAAGGAGGUUC against CAB39L", "False"],
  ["UACGUAGUCGUCAUCAUCU against FAM83G", "True"],
  ["UAGGUUAUGAAAUUAAUCA against MAP6D1", "False"],
  ["AAAUCGUUCAAUUACAUCC against ADAM17", "True"],
  ["UUCUUGUAGUCCUCUAGGC against FZD8", "True"],
  ["UUGUUCCUCAGGUCAAGUG against GAB2", "True"],
  ["UUUGUCUUUUGCAUCUUUC against SFPQ", "False"],
  ["AAAACUACCGUUUGUGCAU against RPS27", "True"],
  ["UUCAUUAUCGAUUUUUGCC against CYB5R2", "True"]
]}
